Test: MTT cell viability assay on HaCaT
Settings: human, HaCaT keratinocyte cells
READOUT LABEL: viability at 72 h, 75 µM (%)
Only the number, expressed in %, is required.

Data request: Form field: reported viability at 72 h, 75 µM of C=C(C)C1CCC2(C(=O)O)CCC3(C)C(CCC4C5(C)Cc6c([nH]c7ccccc67)C(C)(C)C5CCC43C)C12 (stereo not shown)
Data returned: 80.3

* * *

Give measured viability at 72 h, 75 µM for each item. Keep answers brief.
Test: in vitro
Settings: human

Data request: Form field: reported viability at 72 h, 75 µM of C=C(C)[C@@H]1CC[C@]2(C(=O)NCC(=O)O)CC[C@]3(C)[C@H](CC[C@@H]4[C@@]5(C)Cc6c([nH]c7ccccc67)C(C)(C)[C@@H]5CC[C@]43C)[C@@H]12 [BA3, N-(2,3-indolo-betulinoyl)glycine]
Data returned: ~70%

Data request: For C=C(C)[C@@H]1CC[C@]2(C(=O)NCC(=O)NCC(=O)O)CC[C@]3(C)[C@H](CC[C@@H]4[C@@]5(C)Cc6c([nH]c7ccccc67)C(C)(C)[C@@H]5CC[C@]43C)[C@@H]12 [BA2, N-(2,3-indolo-betulinoyl)glycylglycine] then?
Data returned: ~70%

Data request: For C=C(C)[C@@H]1CC[C@]2(C(=O)NCC(=O)NCC(=O)NCC(=O)O)CC[C@]3(C)[C@H](CC[C@@H]4[C@@]5(C)Cc6c([nH]c7ccccc67)C(C)(C)[C@@H]5CC[C@]43C)[C@@H]12 [BA1, N-(2,3-indolo-betulinoyl)diglycylglycine] then?
Data returned: ~70%
